measurement-description: HepG2 cytotoxicity, primary screen, cytotoxicity control for P. falciparum antimalarial project, cell-based, ATP luminescence (AID 2303);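 note: 0% = DMSO wells and 100% = digitonin-killed cells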
condition-notes: HepG2 viability, 24-48 h, at 10 µM
Activity calls are given as the source filed them.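 Rule for the calls: active = inhibition above 50%; inactive = the rest.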
Write down the outcome that applies. Available outcomes: y (active), n (inactive)

These recorded examples may help you get a feel for the data.
| compound | answer-label |
| --- | --- |
| O=C(NC1CCN(Cc2ccc3c(c2)OCCO3)CC1)c1ccc(-c2cccc(Cl)c2)s1 | n |
| Nc1ccc(-c2ccc(NC(=O)Nc3cc(C(F)(F)F)ccc3F)cc2)cn1 | n |
| COc1ccc(S(=O)(=O)NC2CCN(c3ccnc4cc(Cl)ccc34)C2)cc1 (stereo not given) | n |

Next compound, please.
Q: Lab log entry: OC(CNCCCc1ccccc1)c1cc(OCc2ccccc2)cc(OCc2ccccc2)c1 (stereo not given) — outcome as called in the assay?
Ans: n

---

test-system: Protein kinase 7 (PK7), Plasmodium falciparum 3D7 (PF3D7_0213400)
measurement-description: inhibition of Plasmodium PK7 catalytic activity – biochemical, TCAMS antimalarial set, Kinase-Glo luminescence (AID 1159587)
condition-notes: recombinant PfPK7, Kinase-Glo ATP depletion luminescence
Calls of active or inactive are those of the source. How the calls were made is not given here.
recorded-endpoint: outcome

In the examples that follow, each entry is paired with its recorded outcome.
| compound | outcome |
| --- | --- |
| COc1ccc(-c2ccc(NC(=O)c3ccc(Cl)cc3)cc2)cc1CN1CCC(O)CC1 | inactive |
| CCN(CC)S(=O)(=O)c1ccc(CCOCCCCCNCC(O)c2cc(Cl)c(N)c(Cl)c2)s1 (stereo not given) | inactive |
| NC(=O)c1cnc2cc(-c3ccoc3)ccc2c1Nc1ccc(NC(=O)Nc2ccccc2Cl)cc1 | inactive |
| O=C(C=Cc1ccc(Cl)c(Cl)c1)NCCCCCN1CCC(CCNS(=O)(=O)c2ccc(F)cc2)CC1 | inactive |
| CCc1ccc(S(=O)(=O)Nc2ccc(CCN3CCC(N4CCCCC4)CC3)cc2)cc1 | inactive |
| c1cc(CNC2CCCC2)cc(-c2ccc(CNc3ccc4ncccc4c3)cc2)c1 | inactive |
| CCCNCc1ccc(-c2ccc(CN(CCOC)C(=O)c3ccco3)cc2)nc1 | inactive |
| CCn1c(CN2CCN(Cc3ccccc3)CC2)nc2cc(NC(=O)c3cccs3)ccc21 | inactive |
| O=C(Nc1cccc(-c2cccc(-c3nc4ccc(C(F)(F)F)cc4[nH]3)c2)c1)c1cccnc1 | inactive |
| Cc1[nH]nc2ccc(-c3cc(OC[C@@H](N)Cc4ccccc4)cnc3-c3ccc(OCc4cccc(F)c4)cc3)cc12 | inactive |

Moving on to the next compound.
Q: Send back Protein kinase 7 (PK7), Plasmodium falciparum 3D7 (PF3D7_0213400) outcome of c1ccc(-c2ccc3c(Nc4ccc5[nH]ccc5c4)ccnc3c2)nc1 only.
Ans: inactive

---

measurement-description: inhibition of 3D7 malaria parasite growth – strain 3D7 (AID 2306);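 note: 0% = DMSO wells and 100% = chloroquine plus artemisinin control wells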
condition-notes: P. falciparum 3D7 erythrocytic growth, LDH absorbance, 72 h; at 2 µM; hits give high values
recorded-endpoint: growth inhibition (%)
// return numeric value only (unit: %, not printed)

| compound | growth inhibition [%] |
| --- | --- |
| COc1cc(Cc2cnc(N)nc2N)cc(OCCCCC2SC(=O)NC2=O)c1Br (centres undefined) | 94 |
| O=C(N[C@@H](CC1CCCCC1)C(=O)NC1CC1)c1ccc(O)c(-c2cccc(C(F)(F)F)c2)c1 | 99 |
| c1ncc(CCNc2nc(Nc3ccc4c(c3)OCO4)nc(NC3CCCC3)n2)[nH]1 | 80 |
| CN(C)CCN(C)Cc1ccc(-c2ccc(NC(=O)c3ccc(Cl)cc3)cc2)cc1 | 91 |

Q: Please give the documented growth inhibition of O=C(NCc1ccc(C(=O)NCc2cccc3ccccc23)cc1)c1ccc(O)c(-c2ccc(Cl)c(Cl)c2)c1
Ans: 100

Q: Please give the documented growth inhibition of O=C(Nc1ccc(C(=O)Oc2ccc(-c3ccccc3)cc2)cc1)N[C@@H](Cc1ccc(O)cc1)C(=O)NC1CCN(Cc2ccc(O)cc2)C1 (some centres undefined)
Ans: 94

Q: Please give the documented growth inhibition of O=C(Nc1ccc2ccccc2c1)c1ccc(CN2CCC(Cc3ccccc3)CC2)cc1
Ans: 95

Q: Please give the documented growth inhibition of c1csc(-c2nc(NCC3CCCO3)ncc2-c2ccsc2)n1 (centres undefined)
Ans: 89

Q: Please give the documented growth inhibition of O=C(O)c1ccc(-c2c[nH]c3ncc(-c4ccc(Cl)cc4)cc23)cc1
Ans: 97

---

test-system: L-lactate dehydrogenase (Plasmodium falciparum (isolate CDC / Honduras)) (UniProt Q27743)
Sequence (Q27743 whole entry, looked up): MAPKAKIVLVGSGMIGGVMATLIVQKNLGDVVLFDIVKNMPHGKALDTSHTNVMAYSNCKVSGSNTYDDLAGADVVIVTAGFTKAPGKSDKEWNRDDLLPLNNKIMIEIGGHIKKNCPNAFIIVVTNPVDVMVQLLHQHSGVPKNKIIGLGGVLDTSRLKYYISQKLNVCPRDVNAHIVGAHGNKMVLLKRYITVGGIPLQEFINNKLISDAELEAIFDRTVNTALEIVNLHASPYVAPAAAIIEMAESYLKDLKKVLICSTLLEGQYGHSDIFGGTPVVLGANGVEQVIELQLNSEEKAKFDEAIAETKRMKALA
measurement-description: PfLDH activity inhibition – cell lysate, 3D7 strain, counter-screen for P. falciparum growth inhibition project (AID 2304);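 note: 0% = vehicle and 100% = reference inhibitor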
condition-notes: P. falciparum 3D7 crude extract, LDH APAD/NBT absorbance; at 2 µM; hits give high values
Parameter inhibition: see the listing below.
// return numeric value only (unit: %, not printed)

In the examples that follow, each entry is paired with its recorded inhibition.
| molecule | test-system | recorded-measurement |
| --- | --- | --- |
| CN(C)CCC1CCN(CCS(=O)(=O)c2cccc(Nc3ccc(-c4cccc(F)c4)cn3)c2)CC1 | L-lactate dehydrogenase (Plasmodium falciparum (isolate CDC / Honduras)) (UniProt Q27743) | 5 |
| CCN(CC)CCN(Cc1ccc(-c2ccc(C(F)(F)F)cc2)cc1)C(=O)Cn1c(CCc2cccc(F)c2F)nc(=O)c2ccccc21 | L-lactate dehydrogenase (Plasmodium falciparum (isolate CDC / Honduras)) (UniProt Q27743) | -3 |
| FC(F)(F)c1ccc2nc(-c3ccc(-c4cccc(CNCCN5CCNCC5)c4)cc3)[nH]c2c1 | L-lactate dehydrogenase (Plasmodium falciparum (isolate CDC / Honduras)) (UniProt Q27743) | -1 |

Q: Please give the documented inhibition of CC(=O)Nc1ccc(CN2CCC(NC(=O)c3ccc(-c4cccc(OC(C)C)c4)s3)CC2)cc1
Ans: -5

Q: Please give the documented inhibition of COc1ccc2c(c1)CC(C)(C)NC2CCCCCCCCC1NC(C)(C)Cc2cc(OC)ccc21 (centres undefined)
Ans: 0

Q: Please give the documented inhibition of O=C(NC1CCN(Cc2ccccc2)CC1)c1ccc(-c2nc3cc(Cl)c(F)cc3[nH]2)cc1
Ans: 3

Q: Please give the documented inhibition of CCc1cn(C)c2c(N3CCCC3=O)cc(C(=O)N[C@@H](Cc3ccccc3)[C@H](O)CNCc3cccc(OC)c3)cc12
Ans: 0

Q: Please give the documented inhibition of O=C(CSc1nccn1C1CCCC1)Nc1cc(C(F)(F)F)ccc1Cl
Ans: -2

Q: Please give the documented inhibition of Cc1cc(N[C@@H](CC(C)C)C(=O)NCc2cccs2)nc(NCCc2ccc(F)cc2)n1
Ans: -2

---

test-system: L-lactate dehydrogenase (Plasmodium falciparum (isolate CDC / Honduras)) (UniProt Q27743)
measurement-description: PfLDH activity inhibition – cell lysate, 3D7 strain, counter-screen for P. falciparum growth inhibition project (AID 2304);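 note: 0% = vehicle and 100% = reference inhibitor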
condition-notes: P. falciparum 3D7 crude extract, LDH APAD/NBT absorbance; at 2 µM; hits give high values
The source made the active and inactive calls. The rule behind the calls is not given here.
Parameter inhibition: see the listing below.

| molecule | inhibition |
| --- | --- |
| COc1ccc(-c2nonc2NC(=O)c2ccc(OC(C)C)cc2)cc1OC | -3% (inactive) |

Q: Please give the documented inhibition of O=C(N[C@@H](Cc1ccccc1)C(=O)NCc1cccc2ccccc12)c1ccc(O)c(-c2ccc(Cl)c(Cl)c2)c1
Ans: 4% (inactive)

Q: Please give the documented inhibition of CC(CON1C(N)=NC(N)=NC1(C)C)c1ccc(Cl)cc1Cl (stereo not drawn)
Ans: 0% (inactive)

Q: Please give the documented inhibition of O=C(NCc1ccccc1S(=O)c1ccccc1CO)C(F)(F)F (stereo not drawn)
Ans: 0% (inactive)

Q: Please give the documented inhibition of Cc1c(N)ccc2[nH]c(-c3ccc(N)cc3)nc12
Ans: 0% (inactive)

Q: Please give the documented inhibition of CCNc1cc(C(=O)N[C@@H](Cc2ccccc2)[C@H](O)CNC2CCC(C)(C)CC2)cc(N2CCCCS2(=O)=O)c1
Ans: 3% (inactive)

Q: Please give the documented inhibition of O=C(Cn1c(SCc2cccc(F)c2F)cc(=O)c2ccccc21)N(Cc1ccc(-c2ccc(C(F)(F)F)cc2)cc1)C1CCN(CCO)CC1
Ans: 4% (inactive)

Q: Please give the documented inhibition of C=C(NC(=O)c1cc(C)cc(C)c1)C(=O)OC
Ans: -3% (inactive)

Q: Please give the documented inhibition of O=C(/C=C/c1ccc(Cl)c(Cl)c1)NCCCCCN1CCC(NC(=O)c2cccc(Cl)c2)CC1
Ans: -6% (inactive)

Q: Please give the documented inhibition of Cc1cc(N[C@@H](CC(C)C)C(=O)Nc2ccccc2)nc(NCc2ccccc2C)n1
Ans: 4% (inactive)

Q: Please give the documented inhibition of Cc1cc(NC2CCCC2)nc(Nc2ccc(F)cc2)n1
Ans: -3% (inactive)

Q: Please give the documented inhibition of O=C(C=Cc1ccc(Cl)c(Cl)c1)NCCCCCN1CCC(CCNC(=O)c2ccc3c(c2)OCO3)CC1
Ans: -3% (inactive)

Q: Please give the documented inhibition of CN(CCCNc1ccc(C(=O)Nc2ccc(C(F)(F)F)cc2)cc1[N+](=O)[O-])Cc1ccccc1
Ans: -9% (inactive)
